Each entry below lists one item and its recorded HIS4 meiotic recombination assay sensitivity score value.
- System: S. cerevisiae NKY1551 his4x/his4B, sporulating;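 note: active if sensitivity score above 5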
- PROTOCOL: HIS4 meiotic recombination assay sensitivity score (z-score vs DMSO controls); higher = stronger inhibition of sporulation/recombination, active = hit call of the paper
Where a name gives a salt, the structure may show the parent alone.
Reply briefly: the number, and no unit.

Would you please look over these solved cases?
CCOC(=O)[C@@]1(CCCCCCOc2ccc(Cl)cc2)CO1 [Etomoxir] (stock concentration (mM, diluted 1:100): 10)    -1.14
OCc1cc(C(O)CNCCCCCCOCCCCc2ccccc2)ccc1O (configuration not stated) [Salmeterol] (stock concentration (mM, diluted 1:100): 10)    0.79
OCCN1CCN(CCCN2c3ccccc3Sc3ccc(C(F)(F)F)cc32)CC1 [Fluphenazine hydrochloride] (stock concentration (mM, diluted 1:100): 10)    7.55

GET /values?readout=HIS4 meiotic recombination assay sensitivity score&item= Cc1cccc(CCN2CCC(C(=O)c3ccc(NS(C)(=O)=O)cc3)CC2)n1 (stock concentration (mM, diluted 1:100): 9.9)
-3.32
